Test system: HCC 2998
Assay: NCI tumour cell line growth inhibition, 48 h
Activity calls are given as the source filed them. No stated cut-off is given here; in the data, active = GI50 up to about 1.1 µM and inactive = higher.
A correct response names exactly one class from True (active), False (inactive)

Solved cases (8 shown):
CC(C)SC(=S)Sc1c(Cl)c(Cl)nc(Cl)c1Cl :: False
CC(C)(C)C1CCN(C(=O)c2ccccc2)CC1 :: False
O=C(O)CCC1c2[nH]c3ccccc3c2CCN1Cc1ccccc1 (stereo unspecified) :: False
N=c1oc2ccc(Cl)cc2cc1C(=O)Nc1ccccc1 :: False
Nc1nc(N)c2cc(CNc3ccc(C(=O)NC(CC(=O)O)C(=O)O)c(Cl)c3)ccc2n1 (stereo unspecified) :: False
COC(=O)Cc1cc2c(cc1C(=O)c1ccc(N)cc1)OCO2 :: True
C[C@H]1CC(=O)[C@@]2(O)C#C/C=C\C#C[C@@H]3Nc4c(cc(O)c5c4C(=O)c4ccccc4C5=O)[C@]24O[C@]314 :: True
COc1ccc(Nc2n[nH]c(NS(=O)(=O)c3cc(C)c(Cl)cc3S)n2)cc1 :: False

Query: What was the test verdict on CCCCCCCCCCCCCCCCCCCCCC(=O)Nc1ccn(C2OC(CO)C(O)C2O)c(=O)n1 (stereo unspecified) ?
Reply: False

Query: What was the test verdict on CCCCCCCCC1C(C)c2c([nH]c3ccccc23)C2C(=O)N(c3ccccc3)C(=O)C21 (stereo unspecified) ?
Reply: False

Query: What was the test verdict on CCc1nc(N)nc(N)c1-c1ccc2nn(-c3ccccc3)[n+]([O-])c2c1 ?
Reply: False

Query: What was the test verdict on Cc1c(C(=O)CC(=O)C(=O)Nc2c(C(C)C)cccc2C(C)C)[n+]([O-])c2ccccc2[n+]1[O-] ?
Reply: False

Query: What was the test verdict on CC12OC3(C)OC(=O)C(c4ccccc4)(O1)C3(C)O2 (stereo unspecified) ?
Reply: False

Query: What was the test verdict on Cc1c(Cl)c2ccccc2n1S(=O)(=O)c1ccccc1 ?
Reply: False

Query: What was the test verdict on CC(C)C(NC(=O)Oc1ccccc1)C(=O)NC1c2c(Br)sc(Br)c2C(=O)C1O (stereo unspecified) ?
Reply: False

Query: What was the test verdict on NC(=O)SCCC(N)C(=O)O (stereo unspecified) ?
Reply: False

Query: What was the test verdict on O/N=C1\CC2(N3CCOCC3)CCC1(Cc1ccccc1)CC2 ?
Reply: False

Query: What was the test verdict on OCSc1nn(CO)c(=S)s1 ?
Reply: False

Query: What was the test verdict on CN(/N=C/c1ccccn1)C1=NCCCCN1 ?
Reply: False

Query: What was the test verdict on CC(=O)N(CC(=O)C(=O)NNc1ccoc1)c1ccc(Cl)cc1 ?
Reply: False

Query: What was the test verdict on C/C=C/C=C\C1OC(O)([C@H](CC)C(=O)NC/C=C/C=C(\C)[C@H](OC)C(C)C2OC(\C=C/C=C/C=C(\C)C(=O)c3c(O)ccn(C)c3=O)[C@H](O)[C@@H]2O)C(O)C(O)C1(C)C (stereo partly specified) ?
Reply: False
